Hey, just so you know, these numbers are from the supplement of paper PMC9732359.

# EXPERIMENTAL DETAILS: protein stability index of a GFP-peptide fusion (yeast GPS) (PSI 1-4); higher = more stable; sorted into four equal gates, so the index is relative within each strain
# TEST SETTINGS: doa10∆
MEASURED ENDPOINT: protein stability index
Enter the number alone.

I would be grateful if you could share the reported protein stability index for TSALSELSGLISSAKLD [QCR2] . 1.69

I would be grateful if you could share the reported protein stability index for FANNHFLNSNAVVVGTG [COR1] . 1.41

I would be grateful if you could share the reported protein stability index for RKCCNHPYLFEGAEPGP [ISW2] . 3.06

I would be grateful if you could share the reported protein stability index for HTEDEQIEKKKICRGRM [SIR4] . 3.52

I would be grateful if you could share the reported protein stability index for SAGLFGSKPAGGTSLFG [YGL172W/NUP49] . 2.6

I would be grateful if you could share the reported protein stability index for VRDTSPHGISVFLSNLV [BRR2] . 1.35

I would be grateful if you could share the reported protein stability index for VFLEFSLNFIPITASTS [YML103C/NUP188] . 1.27

I would be grateful if you could share the reported protein stability index for GVNGYIWLRKTSQMDLA [RRP4] . 3.07

I would be grateful if you could share the reported protein stability index for PTFVEFILIPLYKIFSY [SNU114] . 1.98

I would be grateful if you could share the reported protein stability index for APKWYPSEDVAALKKTR [RPL6A] . 2.5

I would be grateful if you could share the reported protein stability index for QNNSTGSSSIIYYDSYI [SSN2] . 2.63

I would be grateful if you could share the reported protein stability index for MKWDFAKDIKGYGTQKI [PRE4] . 2.15

I would be grateful if you could share the reported protein stability index for KDLVKNNVSFNAKDIQI [FAS1] . 2.46

I would be grateful if you could share the reported protein stability index for RKALPKEPKKLLPNSKN [DSN1] . 2.55

I would be grateful if you could share the reported protein stability index for PYTGWVDSKTKEPVDDK [FAS2] . 3.05

I would be grateful if you could share the reported protein stability index for NEGVPSPMLSISNLTQE [FAS1] . 2.84

I would be grateful if you could share the reported protein stability index for RRRDGVFLYFEDNAGVI [RPL23A] . 2.68

I would be grateful if you could share the reported protein stability index for GATYRGKLVESEDSMNV [SMD3] . 3.17

I would be grateful if you could share the reported protein stability index for FGSADDTYPYLTGEWST [FAS1] . 2.32

I would be grateful if you could share the reported protein stability index for FICSIIQTVVISLLALP [YML031W/NDC1] . 1.43

I would be grateful if you could share the reported protein stability index for GELDVLQIESVTKETVH [PRP8] . 2.54

I would be grateful if you could share the reported protein stability index for NTLEEFEHGRTPAEMSR [FAS2] . 2.8

I would be grateful if you could share the reported protein stability index for QNIAQSSNQSAPVETKK [HRT1] . 3.01

I would be grateful if you could share the reported protein stability index for ISLPKGKGIKLSIAEER [RPS4A] . 2.03

I would be grateful if you could share the reported protein stability index for PEYYSTARVMGGLKNGV [DIS3] . 3.15

I would be grateful if you could share the reported protein stability index for MTTWRKLYTKELSVTGS [YMR129W/POM152] . 2.06

I would be grateful if you could share the reported protein stability index for VMRNEIRITSLQGDLTF [SIR4] . 2.8

I would be grateful if you could share the reported protein stability index for SNTMYSVRLFSFLDPLN [YJL039C/NUP192] . 1.41

I would be grateful if you could share the reported protein stability index for EVAQYLQEIYQTDAIKS [RPN5] . 2.3

I would be grateful if you could share the reported protein stability index for KPTVILKLLKENIIQME [FAS1] . 1.38

I would be grateful if you could share the reported protein stability index for EYKTSSDSLGPDTSNEI [SRB2] . 2.67

I would be grateful if you could share the reported protein stability index for EQQKGQQTAQTQLEQQR [SNF5] . 3.33

I would be grateful if you could share the reported protein stability index for INESAENFSNGISLVME [MED1] . 3.35

I would be grateful if you could share the reported protein stability index for ELAGDEELEAEQIDVFS [PRP8] . 3.43

I would be grateful if you could share the reported protein stability index for KERIIRAFLIEEQKIVK [RPL34A] . 3.06

I would be grateful if you could share the reported protein stability index for NLSRYPKSGIDIFVYLT [MTR3] . 2.35

I would be grateful if you could share the reported protein stability index for KNKYLKDVLAQTSVTTN [SWP82] . 2.5

I would be grateful if you could share the reported protein stability index for FTKNEEKLLKELENNEF [ITC1] . 2.26

I would be grateful if you could share the reported protein stability index for AFVPKKRKTNIIMFVGL [SRP54] . 2.03

I would be grateful if you could share the reported protein stability index for RIPFSERKLKFSNRFLP [FAS1] . 1.28

I would be grateful if you could share the reported protein stability index for RESLIMLLEEQLEYKRG [MED7] . 2.51

I would be grateful if you could share the reported protein stability index for ELTDNMSDFVPIDAGLN [MCD1] . 3.12

I would be grateful if you could share the reported protein stability index for LPSWSLGKWYSKEDYET [ARP7] . 1.62
